Observed Ki values for Histamine H1 receptor (Homo sapiens) are listed in what follows.
QUANTITY KIND: Ki

COMPOUND: Cc1nc(N)sc1CCCN/C(N)=N/C(=O)NC(c1ccccc1)C(F)(F)F (stereo not given)
ASSAY RESULT: 53.7 µM
//
COMPOUND: CCCCCCNC(=O)/N=C(\N)NC1CCc2nc(N)sc2C1 (stereo not given)
ASSAY RESULT: 1.95 µM
//
COMPOUND: Cc1ccc(CC(C)CNC(=O)/N=C(\N)NCCCc2sc(N)nc2C)cc1 (stereo not given)
ASSAY RESULT: 1.66 µM
//
COMPOUND: Cc1nc(N)sc1CCCN/C(N)=N/C(=S)NC[C@H](C)c1ccccc1
ASSAY RESULT: 63.1 µM
//
COMPOUND: Cc1nc(N)sc1CCCN/C(N)=N/C(=O)NC(C)c1ccc(OC(F)(F)F)cc1 (stereo not given)
ASSAY RESULT: 21.9 µM

====

Listed here are molecules together with their documented pKi.
TARGET UNDER TEST: D(2) dopamine receptor (Homo sapiens)
Sequence (P14416 whole entry): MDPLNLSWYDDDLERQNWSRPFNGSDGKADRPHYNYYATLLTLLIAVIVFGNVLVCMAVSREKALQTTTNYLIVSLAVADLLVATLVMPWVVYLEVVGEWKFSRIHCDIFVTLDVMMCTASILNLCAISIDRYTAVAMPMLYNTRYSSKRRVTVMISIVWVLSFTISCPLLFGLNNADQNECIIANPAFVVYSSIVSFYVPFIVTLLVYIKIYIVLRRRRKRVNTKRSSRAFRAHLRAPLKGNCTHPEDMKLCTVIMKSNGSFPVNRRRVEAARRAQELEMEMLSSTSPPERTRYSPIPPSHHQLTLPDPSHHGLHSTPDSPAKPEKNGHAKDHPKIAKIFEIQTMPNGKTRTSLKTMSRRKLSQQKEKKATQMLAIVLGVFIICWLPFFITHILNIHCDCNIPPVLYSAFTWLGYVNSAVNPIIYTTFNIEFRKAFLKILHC
pKi: −log10 of the molar value.
QUANTITY KIND: pKi

MOLECULE: CCCCCCNC(=O)/N=C(\N)NCCCc1sc(N)nc1C
QUANTITY KIND: pKi
ASSAY RESULT: 6.25
--
MOLECULE: CCCCCCNC(=O)/N=C(\N)NC1CCc2nc(N)sc2C1 (configuration not stated)
QUANTITY KIND: pKi
ASSAY RESULT: 5.90
--
MOLECULE: CCCCCCNC(=O)/N=C(\N)Nc1cccc(-c2csc(N)n2)c1
QUANTITY KIND: pKi
ASSAY RESULT: 5.60
--
MOLECULE: Cc1nc(N)sc1CCCN/C(N)=N/C(=O)NCC(C)CCc1ccccc1 (configuration not stated)
QUANTITY KIND: pKi
ASSAY RESULT: 6.45
--
MOLECULE: Cc1nc(N)sc1CCCN/C(N)=N/C(=S)N[C@H](C)c1ccccc1
QUANTITY KIND: pKi
ASSAY RESULT: 5.93
--
MOLECULE: N/C(=N\C(=O)NCc1ccccc1)NC1CCc2nc(N)sc2C1 (configuration not stated)
QUANTITY KIND: pKi
ASSAY RESULT: 6.26
--
MOLECULE: Cc1nc(N)sc1CCCN/C(N)=N/C(=O)NCc1ccccc1
QUANTITY KIND: pKi
ASSAY RESULT: 6.22

====

Intrinsic activity listing for selected compounds.
TARGET UNDER TEST: Histamine H2 receptor (Cavia porcellus) (UniProt P47747)
Sequence (P47747 whole entry): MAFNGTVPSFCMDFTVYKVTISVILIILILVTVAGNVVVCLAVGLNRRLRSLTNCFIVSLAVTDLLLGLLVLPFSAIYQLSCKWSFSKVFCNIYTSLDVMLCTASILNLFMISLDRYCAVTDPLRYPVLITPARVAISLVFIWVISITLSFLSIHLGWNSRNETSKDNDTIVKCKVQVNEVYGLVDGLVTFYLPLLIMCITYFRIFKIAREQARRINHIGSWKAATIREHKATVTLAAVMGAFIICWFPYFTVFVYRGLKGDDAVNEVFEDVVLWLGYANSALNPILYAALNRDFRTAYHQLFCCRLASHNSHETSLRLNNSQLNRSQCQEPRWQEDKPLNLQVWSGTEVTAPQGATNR
PROTOCOL DESCRIPTION: Agonist activity at guinea pig right atrium histamine H2 receptor assessed as intrinsic activity incubated for 30 mins in presence of cimetidine relative to histamine
Type: functional, tissue-based
EXPERIMENTAL CONDITIONS: Right cardiac atrium, filed as agonist

COMPOUND: CCCCCCNC(=O)/N=C(\N)NCCCc1sc(N)nc1C
Intrinsic activity: 0.95

COMPOUND: Cc1nc(N)sc1CCCN/C(N)=N/C(=O)NC(c1ccccc1)C(C)C (configuration not stated)
Intrinsic activity: 1.04

COMPOUND: Cc1nc(N)sc1CCCN/C(N)=N/C(=O)NC(C)c1ccc(F)cc1 (configuration not stated)
Intrinsic activity: 0.92

COMPOUND: CCC(NC(=O)/N=C(\N)NCCCc1sc(N)nc1C)c1ccccc1 (configuration not stated)
Intrinsic activity: 0.93

COMPOUND: Cc1nc(N)sc1CCCN/C(N)=N/C(=O)NC(C)c1cccs1 (configuration not stated)
Intrinsic activity: 0.88

COMPOUND: Cc1nc(N)sc1CCCN/C(N)=N/C(=O)NC(c1ccccc1)C(F)(F)F (configuration not stated)
Intrinsic activity: 0.85

COMPOUND: Cc1nc(N)sc1CCCN/C(N)=N/C(=O)NC(C)c1ccc(OC(F)(F)F)cc1 (configuration not stated)
Intrinsic activity: 0.61

COMPOUND: Cc1nc(N)sc1CCCN/C(N)=N/C(=O)NC(C)c1ccco1 (configuration not stated)
Intrinsic activity: 1

COMPOUND: Cc1nc(N)sc1CCCN/C(N)=N/C(=O)NC(C)c1ccc(Cl)cc1 (configuration not stated)
Intrinsic activity: 0.93

COMPOUND: COc1ccc(C(C)NC(=O)/N=C(\N)NCCCc2sc(N)nc2C)cc1 (configuration not stated)
Intrinsic activity: 0.91

COMPOUND: Cc1nc(N)sc1CCCN/C(N)=N/C(=O)NC[C@H](C)c1ccccc1
Intrinsic activity: 0.99

COMPOUND: Cc1nc(N)sc1CCCN/C(N)=N/C(=S)N[C@@H](C)c1ccccc1
Intrinsic activity: 0.65

COMPOUND: Cc1nc(N)sc1CCCN/C(N)=N/C(=S)NC[C@@H](C)c1ccccc1
Intrinsic activity: 0.66

COMPOUND: Cc1nc(N)sc1CCCN/C(N)=N/C(=O)NCc1ccco1
Intrinsic activity: 0.58

COMPOUND: Cc1nc(N)sc1CCCN/C(N)=N/C(=S)N[C@H](C)c1ccccc1
Intrinsic activity: 0.87

COMPOUND: Cc1nc(N)sc1CCCN/C(N)=N/C(=O)NC[C@@H](C)c1ccccc1
Intrinsic activity: 0.98

COMPOUND: Cc1nc(N)sc1CCCN/C(N)=N/C(=S)NC[C@H](C)c1ccccc1
Intrinsic activity: 0.44
